Molecular target: Melanocyte-stimulating hormone receptor (Homo sapiens, UniProt Q01726)
Sequence (Q01726 whole entry): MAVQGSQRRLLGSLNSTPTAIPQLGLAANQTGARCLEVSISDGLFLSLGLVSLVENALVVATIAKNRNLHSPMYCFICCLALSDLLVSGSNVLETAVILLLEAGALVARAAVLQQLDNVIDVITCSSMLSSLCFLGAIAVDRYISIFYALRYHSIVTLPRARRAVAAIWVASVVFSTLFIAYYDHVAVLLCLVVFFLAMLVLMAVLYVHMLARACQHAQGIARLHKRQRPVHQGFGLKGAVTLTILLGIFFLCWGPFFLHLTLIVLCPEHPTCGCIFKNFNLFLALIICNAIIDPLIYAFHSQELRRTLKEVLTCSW
Assay: Effective concentration against hMC1R using HEK293 cells was determined by measuring the cAMP accumulation
pEC50: −log10 of the molar value. Square brackets hold non-standard residues; d marks the D form. Peptide text beside a SMILES is read from it. * marks the point of attachment. Phe(3-CF3) = N[C@@H](Cc1cccc(C(F)(F)F)c1)C(=O)O; Phe(4-Me) = Cc1ccc(C[C@H](N)C(=O)O)cc1; Butyryl = CCCC(=O)*
parameter-measured: pEC50

* CCCC(=O)N[C@@H](Cc1cnc[nH]1)C(=O)N[C@@H](Cc1ccc(C)cc1)C(=O)N[C@@H](CCCNC(=N)N)C(=O)N[C@@H](Cc1c[nH]c2ccccc12)C(=O)NCC(N)=O (Butyryl-H[Phe(4-Me)]RWG-NH2) | 7.26
* CCCC(=O)N[C@@H](Cc1c[nH]cn1)C(=O)NC(Cc1ccc(OCC)cc1)C(=O)N[C@@H](CCCN=C(N)N)C(=O)N[C@@H](Cc1c[nH]c2ccccc12)C(=O)NCC(N)=O (single isomer, unassigned) | 10.00
* CCCC(=O)N[C@@H](Cc1c[nH]cn1)C(=O)N[C@@H](Cc1ccc(OC)cc1)C(=O)N[C@@H](CCCN=C(N)N)C(=O)N[C@@H](Cc1c[nH]c2ccccc12)C(=O)NCC(N)=O (Butyryl-HY(Me)RWG-NH2) | 9.40
* CCCC(=O)N[C@@H](Cc1c[nH]cn1)C(=O)NC(Cc1ccccc1)C(=O)N[C@@H](CCCN=C(N)N)C(=O)N[C@@H](Cc1ccc(Cl)c(Cl)c1)C(=O)NCC(N)=O (single isomer, unassigned) | 9.00
* CCCC(=O)N[C@@H](Cc1c[nH]cn1)C(=O)NC(Cc1ccccc1)C(=O)N[C@@H](CCCN=C(N)N)C(=O)N[C@@H](Cc1cccc2ccccc12)C(=O)NCC(N)=O (single isomer, unassigned) | 6.82
* CCCC(=O)N[C@@H](Cc1c[nH]cn1)C(=O)N[C@H](Cc1cccc2ccccc12)C(=O)N[C@@H](CCCN=C(N)N)C(=O)N[C@@H](Cc1c[nH]c2ccccc12)C(=O)NCC(N)=O | 7.52
* CCCC(=O)N[C@@H](Cc1cnc[nH]1)C(=O)N[C@@H](Cc1cccc(C(F)(F)F)c1)C(=O)N[C@@H](CCCNC(=N)N)C(=O)N[C@@H](Cc1c[nH]c2ccccc12)C(=O)NCC(N)=O (Butyryl-H[Phe(3-CF3)]RWG-NH2) | 6.21
* CCCC(=O)N[C@@H](Cc1cnc[nH]1)C(=O)N[C@H](Cc1ccccc1)C(=O)N[C@@H](CCCNC(=N)N)C(=O)N[C@@H](Cc1csc2ccccc12)C(=O)NCC(N)=O | 6.56
* CCCC(=O)N[C@@H](Cc1c[nH]cn1)C(=O)NC(Cc1ccccc1)C(=O)N[C@@H](CCCN=C(N)N)C(=O)N[C@@H](Cc1ccc2ccccc2c1)C(=O)NCC(N)=O (single isomer, unassigned) | 7.85
* CCCC(=O)N[C@@H](Cc1c[nH]cn1)C(=O)NC(Cc1ccccc1)C(=O)N[C@@H](CCCN=C(N)N)C(=O)NC(Cc1c[nH]c2ccccc12)C(=O)NCC(N)=O (single isomer, unassigned) | 6.96
